- Test system: ACHN
- experimental-details: Growth inhibition of human ACHN cells after 48 hrs by SRB assay
- Type: functional
Mark rule met for GI50 under 3000 nM, rule not met if at or over.

Solved cases (5 shown):
{"structure-notation": "COc1ccc(-c2nc3ccccn3c2/C=C/C(=O)c2cc(OC)c(OC)c(OC)c2)cc1", "tested-target": "ACHN", "label-class": "rule not met"}
{"structure-notation": "COc1cc(C(=O)/C=C/c2c(-c3cccs3)nc3ccccn23)cc(OC)c1OC", "tested-target": "ACHN", "label-class": "rule met"}
{"structure-notation": "COc1cc(C(=O)/C=C/c2c(C(F)(F)F)nc3ccccn23)cc(OC)c1OC", "tested-target": "ACHN", "label-class": "rule met"}
{"structure-notation": "COc1ccc(C(=O)/C=C/c2c(C(F)(F)F)nc3ccccn23)cc1OC", "tested-target": "ACHN", "label-class": "rule met"}
{"structure-notation": "COc1ccc(-c2nc3ccccn3c2/C=C/C(=O)c2cc(OC)c(OC)c(OC)c2)cc1OC", "tested-target": "ACHN", "label-class": "rule not met"}

Confirm or reject: GI50 of COc1cc(C(=O)/C=C/c2c(-c3ccc(F)cc3)nc3ncccn23)cc(OC)c1OC lies strictly below 3000 nM
rule met

Confirm or reject: GI50 of COc1ccc(-c2nc3ncccn3c2/C=C/C(=O)c2cc(OC)c(OC)c(OC)c2)cc1 lies strictly below 3000 nM
rule met

* * *

- experimental-details: Growth inhibition of human HCC2998 cells after 48 hrs by SRB assay
- Format: functional
- measurement-context: HCC 2998, 48 h
Mark T for GI50 under 2000 nM, F if at or over.

{"structure-notation": "COc1ccc(C(=O)/C=C/c2c(C(F)(F)F)nc3ccccn23)cc1OC", "label-class": "T"}
{"structure-notation": "COc1cc(C(=O)/C=C/c2c(C(F)(F)F)nc3ccccn23)cc(OC)c1OC", "label-class": "T"}

Confirm or reject: GI50 of COc1ccc(-c2nc3ccccn3c2/C=C/C(=O)c2cc(OC)c(OC)c(OC)c2)cc1OC lies strictly below 2000 nM
F

Confirm or reject: GI50 of COc1ccc(-c2nc3ccccn3c2/C=C/C(=O)c2cc(OC)c(OC)c(OC)c2)cc1 lies strictly below 2000 nM
F

Confirm or reject: GI50 of COc1cc(C(=O)/C=C/c2c(-c3ccc(F)cc3)nc3ncccn23)cc(OC)c1OC lies strictly below 2000 nM
T

Confirm or reject: GI50 of COc1ccc(-c2nc3ncccn3c2/C=C/C(=O)c2cc(OC)c(OC)c(OC)c2)cc1 lies strictly below 2000 nM
T

* * *

- experimental-details: Growth inhibition of human OVCAR3 cells after 48 hrs by SRB assay
- Type: functional
- measurement-context: OVCAR-3, 48 h
reported-metric: GI50 (nM)
Please give a number only; it is taken to be in nM.

Worked cases, answers included:
{"structure-notation": "COc1cc(C(=O)/C=C/c2c(-c3cccs3)nc3ccccn23)cc(OC)c1OC", "GI50, nM": 2440}
{"structure-notation": "COc1cc(C(=O)/C=C/c2c(C(F)(F)F)nc3ccccn23)cc(OC)c1OC", "GI50, nM": 1830}
{"structure-notation": "COc1ccc(-c2nc3ncccn3c2/C=C/C(=O)c2cc(OC)c(OC)c(OC)c2)cc1", "GI50, nM": 1750}
{"structure-notation": "COc1ccc(C(=O)/C=C/c2c(C(F)(F)F)nc3ccccn23)cc1OC", "GI50, nM": 1980}
{"structure-notation": "COc1cc(C(=O)/C=C/c2c(-c3ccc(F)cc3)nc3ncccn23)cc(OC)c1OC", "GI50, nM": 1400}

Can you look up the measured GI50 of COc1ccc(-c2nc3ccccn3c2/C=C/C(=O)c2cc(OC)c(OC)c(OC)c2)cc1 for me?
2880

Can you look up the measured GI50 of COc1ccc(-c2nc3ccccn3c2/C=C/C(=O)c2cc(OC)c(OC)c(OC)c2)cc1OC for me?
2470
